assay: Quantitative High-Throughput drug screen in 47 multiple myeloma cell lines against the NCATS MIPE library collection: KMS27_JCRB cell viability assay (AID 1918970); settings: KMS27 myeloma cells, CellTiter-Glo ATP viability, 48 h; series mostly up to 45.8 µM; further: nearly all actives have a fitted effect of over 30% in size
Results filed as inconclusive are left out. Activity calls are given as the source filed them. The call rests on the fitted dose curve; in most records, active means well fitted cell-killing curve with a large enough effect; inconclusive means small, poorly fitted or top-dose-only effect, or effect the other way; inactive means no such curve, though single readings can be large or run the other way.
Respond using exactly one of the listed classes: 1.0 (active), 0.0 (inactive)

molecule=COc1cc2ncnc(Nc3cccc(Cl)c3)c2cc1OC label_value=1.0

How was Cn1c(=O)c2c(ncn2CC(O)CO)n(C)c1=O (stereo unspecified) classified in this test?
0.0

How was CCCc1nc(C)c2c(=O)[nH]c(-c3cc(S(=O)(=O)N4CCN(CC)CC4)ccc3OCC)nn12 classified in this test?
1.0

How was Cc1ncc([N+](=O)[O-])n1CCO classified in this test?
0.0

How was CN(CCOc1ccc(CC2SC(=O)NC2=O)cc1)c1ccccn1 (stereo unspecified) classified in this test?
0.0

How was CCOC(=O)c1ccc(C#Cc2ccc3c(c2)C(C)(C)CCS3)nc1 classified in this test?
0.0

Just for reference, PubChem BioAssay (NCATS) is where these values come from.
